Measured kon accompanies every entry in the list below.
- experimentalTarget: human DR5 (human)
- experimentSummary: SPR (BIAcore X100), human DR5 on CM5 chip, IgG injected, 1:1 Langmuir model
attributeMeasured: kon

[
  {
    "binder": "DA6 (antibody, V domains shown) VH: EVQLVESGGGLVQPGGSLRLSCAASGFTFSSFNMLWVRQAPGKGLEWVAGIGKSDRYTGYGSAVKGRFTISRDDSKSTVYLQMNSLRAEDTAVYYCARDAGSGCGSGGWTGACIDTWGQGTLVTVSS VL: DIQMTQSPSSLSASVGDRVTITCSGGDSYAGSYYYGWYQQKPGKAPKTLIYNNNNRPSGVPSRFSGSTSGTDFTLTISSLQPEDFATYYCGSRDSSYVGIFGQGTKVEIK",
    "measuredResult": "7.8e+06 M⁻¹ s⁻¹"
  },
  {
    "binder": "DA26 (antibody, V domains shown) VH: AVTLDESGGGLQTPGGGLSLVCKGSGFTFSSFNMLWVRQAPGKGLEWVAGIGKSDRYTGYGSAVKGRATISRDDGQSTVYLQMNSLRAEDTGTYYCVKDAGSGCGSGGWTGACIDTWGHGTEVIVSS VL: LTQPSSVSANLGGTVEITCSGGDSYAGSYYYGWYQQKAPGSAPVTVIYNNNNRPSNIPSRFSGSTSGSTATLTITGVQAEDEATYYCGSRDSSYVGIFGAGTTLTVL",
    "measuredResult": "1.09e+06 M⁻¹ s⁻¹"
  },
  {
    "binder": "DA29 (antibody, V domains shown) VH: AVTLDESGGGLQTPGGGLSLVCKGSGFTFSSFNMLWVRQAPGKGLEWVAGIGKSDRYTGYGSAVKGRATISRDDGQSTARLQLNNLRAEDTGTYYCVKDAGSGCGSGGWTGACIDTWGHGTEVIVSS VL: LTQPSSVSANLGGTVEITCSGGDSYAGSYYYGWYQQKAPGSAPVTVIYNNNNRPSNIPSRFSGSTSGSTATLTITGVQAEDEATYFCGSRDSSYVGIFGAGTTLTVL",
    "measuredResult": "1.21e+06 M⁻¹ s⁻¹"
  },
  {
    "binder": "DA13 (antibody, V domains shown) VH: EVQLVESGGGLVQPGGSLRLSCAASGFTFSSFNMLWVRQAPGKGLEWVAGIGKSDRYTGYGSAVKGRFTISRDTSKNTAYLQMNSLRAEDTAVYYCSRDAGSGCGSGGWTGACIDTWGQGTLVTVSS VL: DIQMTQSPSSLSASVGDRVTITCSGGDSYAGSYYYGWYQQKPGKAPKTLIYNNNNRPSGVPSRFSGSRSGTDFTLTISSLQPEDFATYYCGSRDSAGMGAFGQGTKVEIK",
    "measuredResult": "2.62e+06 M⁻¹ s⁻¹"
  },
  {
    "binder": "DA14 (antibody, V domains shown) VH: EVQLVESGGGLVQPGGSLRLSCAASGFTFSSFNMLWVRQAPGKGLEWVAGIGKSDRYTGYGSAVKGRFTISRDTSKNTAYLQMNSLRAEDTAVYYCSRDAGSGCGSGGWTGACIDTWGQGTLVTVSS VL: DIQMTQSPSSLSASVGDRVTITCSGGDSYAGSYYYGWYQQKPGKAPKTLIYNNNNKAKGVPSRFSGSRSGTDFTLTISSLQPEDFATYYCGSRDSSYVGIFGQGTKVEIK",
    "measuredResult": "4.27e+06 M⁻¹ s⁻¹"
  },
  {
    "binder": "DA31 (antibody, V domains shown) VH: AVTLDESGGGLQTPGGGLSLVCKGSGFTFSSFNMLWVRQAPGKGLEWVAGIGKSDRYTGYGSAVKGRATISRDDGQSTARLQMNSLRAEDTGTYYCVKDAGSGCGSGGWTGACIDTWGHGTEVIVSS VL: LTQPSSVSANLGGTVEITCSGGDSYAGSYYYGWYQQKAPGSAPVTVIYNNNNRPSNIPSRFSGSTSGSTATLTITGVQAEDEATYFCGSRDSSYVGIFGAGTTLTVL",
    "measuredResult": "1.24e+06 M⁻¹ s⁻¹"
  }
]
